methodNotes: folding enthalpy; higher = less favourable; fluorescence melt of hairpins on a sequencing array, two-state fit
conditionNotes: sodium 0.088 M
Listed sequences paired with reported folding enthalpy
measuredEndpoint: folding enthalpy (kcal/mol)

* GCTCCTGGAAACAAGAGC ((((.((....)).)))) | -27.9
* GCCTCTGCGAAAGCAGGC (((..(((....)))))) | -8.17
* GATCGATCCCTCGATC ((((((....)))))) | -44.1
* GTTCCTCGAAAGAGAAC (((.(((....)))))) | -24.1
* GTTTAAGAAATTAAAC ((((((....)))))) | -16.8
* GGCCACGAAAGTGCTGCC ((((((....)))..))) | -20.4
* GCGTGGCGAAAGCATCGC (((..((....))..))) | -31.9
* GGACCTGGAAACAGGTTC (.(((((....))))).) | -27.5
* GCTAACGAAAGTTGAAGC ((((((....)))..))) | -15.2
* GAAGTCGGAAACGGTTTC (((..((....))..))) | -8.25
* GCAATCGAAAGATAGTGC ((((((....)))..))) | -22.9
* GGAGGAGGAAACTCTTCC (((.(((....))).))) | -29.1

###

methodNotes: melting temperature; fluorescence melt of hairpins on a sequencing array, two-state fit, raised by 9.35 °C to match UV melts
conditionNotes: sodium 0.088 M
Hi! Just check whether Tm is below 50 °C. Below gives Y, equal or above gives N.

* GTACTGACGAAAGTCTAC (((..(((....)))))) | Y
* GACTACCCGAAAGGGGTC (((..(((....)))))) | Y
* GCACAACGAAAGTTTGC (((.(((....)))))) | Y
* GAGAGGGCGAAAGCCCTC (((..(((....)))))) | N
* GATCTGATGCCAGATC ((((((....)))))) | Y

###

Let's look at some sequences and their measured Tm.
methodNotes: melting temperature; fluorescence melt of hairpins on a sequencing array, two-state fit, raised by 9.35 °C to match UV melts
conditionNotes: sodium 0.088 M
measuredEndpoint: Tm (°C)

- GTTTGGCCGAAAGGCAAC (((..(((....)))))): 37.7
- GTGAGTACGAAAGTACAC (((..(((....)))))): 42.2
- GGCACATCGAAAGATGCC (((..(((....)))))): 42.8
- GCTCGACGAAAGTCCAGC (((.(((....))).))): 44.6
- GGCTTGGGAAACCAGGTC (.(.(((....))).).): 37
- GCCACGGGAAACTGTGGC (((((.(....).))))): 63.2
- GTTTTGCGAAAGCAGAAC (((.(((....))).))): 51.4
- GCGTTGAAAAACGC (((((....))))): 61.2
- GCACATCGAAAGATTTGC (((.(((....))).))): 45.2
- GCAGTAGAAATACTGC ((((((....)))))): 54.8
- GAACGCGAAAGCGAGTTC ((((((....)))..))): 43.1
- GATCTTAACAAAGATC ((((((....)))))): 42.5

###

// reported folding enthalpy for each item listed
methodNotes: folding enthalpy; higher = less favourable; fluorescence melt of hairpins on a sequencing array, two-state fit
conditionNotes: sodium 0.088 M
measuredEndpoint: folding enthalpy (kcal/mol)

• GGGTACCGAAAGGTGCCC (((.(((....))).))) = -29.2
• GTGTGCGGAAACGCGCAC (((.(((....))).))) = -27.7
• GGATTCGAAAGAAGTCC ((((((....))).))) = -17.2
• GGGCAACGAAAGTTCCC (((.(((....)))))) = -22.1
• GCGAGGTGTCGC ((((....)))) = -5.64
• GATGTGGGAAACTACATC (((((.(....).))))) = -36.5
• GACTGGGGAAACCTAGTC ((((.((....)).)))) = -32.8
• GTTTGCGGAAACGTAAAC ((((.((....)).)))) = -32.3
• GACCCCGAAAGGGTAGTC ((((((....)))..))) = -15
• GGGTCCGAAAGGAGTCCC ((((((....)))..))) = -19.6
• AGATTGAAAAATCT (((((....))))) = -10.8
• GTATCCGGAAACGAATAC ((((.((....)).)))) = -26.5

###

methodNotes: melting temperature; fluorescence melt of hairpins on a sequencing array, two-state fit, raised by 9.35 °C to match UV melts
conditionNotes: sodium 0.088 M
Listed here are sequences together with their documented Tm.
measuredEndpoint: Tm (°C)

- GCGAATGTTCGC ((((....)))): 50.3
- GTTCGGGGAAACTCGAAC (((((.(....).))))): 51.3
- GATCCTCTGGAGGATC ((((((....)))))): 58.3
- GATCATTATTATGATC ((((((....)))))): 47.5
- GAGACCGGAAACAGTCTC (((((.(....).))))): 40.4
- GATCTTGTTAAAGATC ((((((....)))))): 53.7
- GCTTTGCGAAAGCAGGGC ((..(((....)))..)): 47
- GCTTCAGAAATGAAGC ((((((....)))))): 55.7
- GCCCAACGAAAGTTCGGC (((.(((....))).))): 45.5
- GATCCCAATAGGGATC ((((((....)))))): 64.8
- GATCGCTAGGGCGATC ((((((....)))))): 68.2
- GGGCCAGGAAACCGGCCC (((((.(....).))))): 64

###

methodNotes: melting temperature; fluorescence melt of hairpins on a sequencing array, two-state fit, raised by 9.35 °C to match UV melts
conditionNotes: sodium 0.088 M
Use satisfied when the recorded Tm is no lower than 50 °C; use not satisfied when it is lower.

- GTGCAAGGAAACTTGTAC ((.((((....)))).)): not satisfied
- GATCTATTCGTAGATC ((((((....)))))): not satisfied
- GATCTATCTATAGATC ((((((....)))))): not satisfied
- GTTCGAGCGAAAGCTAAC (((..(((....)))))): not satisfied
- GCGTCGCGAAAGCTGCGC (((..((....))..))): satisfied
- GGGGGTGGAAACGCCCTC (.(((.(....).))).): satisfied
- GATCTTGGAGAAGATC ((((((....)))))): not satisfied
- GATCTTACGCAAGATC ((((((....)))))): not satisfied
- GATTATGGAAACATAGTC ((.((((....)))).)): not satisfied
- GCCGTGCGAAAGCTGGGC (((..((....))..))): satisfied
- GCGGCGCGAAAGCCACGC (((..((....))..))): satisfied
- GATCATACTGATGATC ((((((....)))))): not satisfied
- GTACGCGAAAGCGCTAC ((((((....))).))): not satisfied
- GTGGCCGAAAGGCACAC ((((((....))).))): satisfied
- GCTGAGCGAAAGCTAGGC ((..(((....)))..)): satisfied
- GAAATCGAAAGATTTC ((((((....)))))): satisfied
- GTCAGCCGAAAGGCGGAC (((.(((....))).))): satisfied
- GGCCGACGAAAGTCTGCC (((.(((....))).))): satisfied
- GGAGTCACGAAAGTGTCC (((..(((....)))))): not satisfied
- GCTGTGCGAAAGCATAGC (((.(((....))).))): satisfied
- GCGTCAACGAAAGTTCGC (((..(((....)))))): not satisfied
- GCGTTAGGAAACTAGCGC (((.(((....))).))): satisfied
- GTGCGGGGAAACCCGTAC ((.((((....)))).)): satisfied

###

methodNotes: folding enthalpy; higher = less favourable; fluorescence melt of hairpins on a sequencing array, two-state fit
conditionNotes: sodium 0.088 M
Listed here are sequences together with their documented folding enthalpy.
measuredEndpoint: folding enthalpy

• GAGCCCGAAAGGGAACTC ((((((....)))..))) = -16.4 kcal/mol
• GGCTTCGAAAGAAATGCC ((((((....)))..))) = -25.3 kcal/mol
• GCAGAGCGAAAGCACTGC ((((.((....)).)))) = -34 kcal/mol
• GCACCAGGAAACTGATGC (((.(((....))).))) = -28.6 kcal/mol
• GGCTGCGCGAAAGCGGCC (((..(((....)))))) = -19.2 kcal/mol
• GAGCTTGGAAACAAACTC (((.(((....))).))) = -23.9 kcal/mol
• GTCGCTCGAAAGAGGGAC (((.(((....))).))) = -44.3 kcal/mol
• GCGGCGCGAAAGCTTCGC (((..((....))..))) = -16.8 kcal/mol
• GCACGTGCGAAAGCATGC (((..(((....)))))) = -8.57 kcal/mol
• GGGGAAGGAAACTTCTCC ((.((((....)))).)) = -35.5 kcal/mol
• GTCATTGGAAACAACGAC (((.(((....))).))) = -20.9 kcal/mol
• GCCTCTCGAAAGAGTGGC (((.(((....))).))) = -41.8 kcal/mol
